Tested on: MUC1-wt
Test: Immunofluorescence imaging of MUC1-wt in P cells (Example 2)
Type: cell-based
Settings: 48 hr incubation, MUC1-wt, read-out: WT EC50 (Cytoplasm)
pEC50: −log10 of the molar value.
property: pEC50

C[C@@H]1CC[C@@]2(C1)[C@@H]1CC[C@@H](C1)[C@@H]2N.Cl [Compound 211-P2-B]    < 4.49
C[C@H]1CCC[C@@]2(C1)[C@@H]1CC[C@@H](C1)[C@@H]2N.Cl [Compound 214-P2-A]    < 4.49
CCCC1(CCC)[C@H]2CC[C@H](C2)[C@H]1N.Cl (racemic) [Compound 205]    < 4.49

Consider the record given below.
[in] Enter measured pEC50, system MUC1-wt, for the compound shown: C[C@H]1CCC[C@]2(C1)[C@H]1CC[C@H](C1)[C@H]2N.Cl [Compound 214-P1-B]
[out] < 4.49

----------
System: MUC1-wt
Test: Immunofluorescence imaging of MUC1-wt in P cells (Example 2)
Assay type: cell-based
Conditions: 48 hr, DMSO = 0, JQ1 = −100% activity, in %
Some compounds, each annotated with its measured WT EMax.
Please reply with the value in numeric form only.

CC1CCC2(CC1C)C1CCC(C1)C2N (racemic) [Compound 240]    −11.1
C[C@]1(N)[C@@H]2CC[C@@H](C2)C12CCCCC2.Cl [Compound 234]    6.7
CC(C)C1(C)C2CCC(C2)C1N.Cl (racemic) [Compound 245]    106.2
Cl.NC1C2CCC(C2)C12CC(O)C(O)C2 (racemic) [Compound 228]    −10.2
CC1(N)C2CCC(C2)C12CCCC2 (racemic) [Compound 233]    21.8

[in] Enter measured WT EMax, system MUC1-wt, for the compound shown: Cl.N[C@@H]1[C@@H]2CC[C@@H](C2)C12CCCC(C(=O)N1CCOCC1)C2 (stereo partly shown) [Compound 226]
[out] 9.0

----------
System: MUC1-fs
Experiment: Immunofluorescence imaging of MUC1-fs in P cells (Example 2)
Type: cell-based
Settings: 48 hr incubation, MUC1-fs, read-out: EC50
property: EC50

Some molecules with recorded EC50:
NC1C2CCC(C2)C12CCCC2 (racemic)    5.99 µM
CC1(CC2CC2)C2CCC(C2)C1N.Cl (racemic) [Compound 244, hydrochloride]    > 16 µM

[in] Tell me its EC50 given COCC1CCCC2(C1)C1CCC(C1)C2N.Cl (racemic) [Compound 225-1] as the entry.
[out] > 16 µM

----------
System: MUC1-wt
Experiment: Immunofluorescence imaging of MUC1-wt in P cells (Example 2)
Type: cell-based
Details: 48 hr, DMSO = 0, JQ1 = −100% activity, in %
Some molecules, each annotated with its measured WT EMax.
Please reply with the value in numeric form only.

[in] Tell me its WT EMax given Cl.NCC1CCCC2(C1)C1CCC(C1)C2N (racemic) as the entry.
[out] 15.6

[in] Tell me its WT EMax given Cl.NC1C2CCC(C2)C12CCOCC2 (racemic) as the entry.
[out] −6.6

[in] Tell me its WT EMax given `CC(C)[C@@]1(C)[C@H]2CC[C@H](C2)[C@@H]1N.Cl` as the entry.
[out] 6.2

[in] Tell me its WT EMax given CC12CC3(CC1(C)C2)C1CCC(C1)C3N.Cl (racemic) as the entry.
[out] −10.0

[in] Tell me its WT EMax given C[C@]1(c2ccccc2)[C@H]2CC[C@H](C2)[C@H]1N (racemic) as the entry.
[out] −15.4

[in] Tell me its WT EMax given NC1C2CCC(C2)C12CCC(O)C2 (racemic) [Compound 249B] as the entry.
[out] −6.7

[in] Tell me its WT EMax given `CC(C)[C@@]1(C)[C@H]2CC[C@H](C2)[C@H]1N.Cl` as the entry.
[out] 20.7

[in] Tell me its WT EMax given CC[C@]1(Cc2ccccc2)[C@H]2CC[C@H](C2)[C@H]1N.Cl [Compound 219-P1] as the entry.
[out] 12.4

[in] Tell me its WT EMax given `Cl.N[C@H]1[C@@H]2CC[C@@H](C2)C12CCCCC2` as the entry.
[out] −7.0

[in] Tell me its WT EMax given Cl.N[C@@H]1[C@@H]2CC[C@@H](C2)C12CCCC(C(=O)N1CCCCC1)C2 (stereo partly shown) as the entry.
[out] 4.6

----------
Test system: MUC1-wt
Assay: Immunofluorescence imaging of MUC1-wt in P cells (Example 2)
Assay type: cell-based
Settings: 48 hr, DMSO = 0, JQ1 = −100% activity, in %
property: WT EMax
Please reply with the value in numeric form only.

Some molecules with recorded WT EMax:
Cl.N[C@@H]1[C@@H]2CC[C@@H](C2)C12CCC[C@H](O)C2 (stereo partly drawn)    −5.7
CC[C@@]1(Cc2ccccc2)[C@@H]2CC[C@@H](C2)[C@@H]1N.Cl [Compound 219-P2]    11.3
NC1C2CCC(C2)C12CC1CCC2C1 (racemic) [Compound 238-A]    38.7
Cl.N[C@@H]1[C@@H]2CC[C@@H](C2)C12CC1CCC2CC1 (stereo partly drawn)    62.7
COCC1CCCC2(C1)C1CCC(C1)C2N.Cl (racemic) [Compound 225-1]    −15.8

[in] Enter measured WT EMax, system MUC1-wt, for the molecule shown: CN(C)CC1CCCC2(C1)C1CCC(C1)C2N.Cl (racemic)
[out] 25.7

[in] Enter measured WT EMax, system MUC1-wt, for the molecule shown: COCC1CCCC2(C1)C1CCC(C1)C2N.Cl (racemic) [Compound 225-2]
[out] −11.1

[in] Enter measured WT EMax, system MUC1-wt, for the molecule shown: NC1C2CCC(C2)C12CCCC2 (racemic)
[out] 6.6

[in] Enter measured WT EMax, system MUC1-wt, for the molecule shown: CC(=O)OC1CC2(CC1OC(C)=O)C1CCC(C1)C2N.Cl (racemic)
[out] −16.1

Where do the numbers come from? From patent US11840495B2.
